Molecular target: UniProt Q9Y6L6
Sequence (Q9Y6L6 whole entry): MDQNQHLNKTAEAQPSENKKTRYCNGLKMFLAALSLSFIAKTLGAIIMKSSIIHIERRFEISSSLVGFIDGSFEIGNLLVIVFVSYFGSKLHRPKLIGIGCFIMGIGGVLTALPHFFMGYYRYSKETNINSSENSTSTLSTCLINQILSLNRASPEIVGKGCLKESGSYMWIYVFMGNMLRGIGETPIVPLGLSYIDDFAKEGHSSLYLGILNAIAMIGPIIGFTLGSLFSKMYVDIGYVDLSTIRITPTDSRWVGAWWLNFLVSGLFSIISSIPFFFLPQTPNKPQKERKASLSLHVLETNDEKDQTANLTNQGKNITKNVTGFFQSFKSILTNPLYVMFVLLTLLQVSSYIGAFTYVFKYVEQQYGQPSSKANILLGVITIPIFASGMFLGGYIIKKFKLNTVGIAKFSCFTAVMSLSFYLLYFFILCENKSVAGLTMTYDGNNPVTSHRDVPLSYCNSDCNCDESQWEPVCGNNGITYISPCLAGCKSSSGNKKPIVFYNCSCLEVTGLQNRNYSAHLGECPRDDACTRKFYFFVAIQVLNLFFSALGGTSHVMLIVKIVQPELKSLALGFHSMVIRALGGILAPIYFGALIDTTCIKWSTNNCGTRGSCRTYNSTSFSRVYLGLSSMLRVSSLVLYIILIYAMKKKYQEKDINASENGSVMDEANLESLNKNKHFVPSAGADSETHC
Settings: chinese hamster, cho, 10 µM
Recorded endpoint: residual activity (%)
Supply the numeric figure in %, leaving out any unit text.

Which residual activity reading was recorded for the compound CC(=O)Oc1ccc(C(c2ccc(OC(C)=O)cc2)c2ccccn2)cc1 ?
97.08

Which residual activity reading was recorded for the compound CN(C)CCC(c1ccccc1)c1ccccn1.O=C(O)/C=C\C(=O)O (stereo not drawn) [PHENIRAMINE MALEATE] ?
72.53

Which residual activity reading was recorded for the compound CC1(C)C(=O)[C@H]2C[C@]3(O)C4=CC(=O)O[C@@H](c5ccoc5)[C@@]4(C)CCC3[C@](C)(C2=O)[C@H]1CC(=O)O (stereo partly drawn) [8-HYDROXYCARAPINIC ACID] ?
73.89

Which residual activity reading was recorded for the compound CC[N+]1(C)CCCC(OC(=O)C(O)(c2ccccc2)c2ccccc2)C1.[Br-] (stereo not drawn) [PIPENZOLATE BROMIDE] ?
70.99

Which residual activity reading was recorded for the compound N[C@@H]1C[C@H]1c1ccccc1.N[C@H]1C[C@@H]1c1ccccc1.O=S(=O)(O)O [TRANYLCYPROMINE SULFATE] ?
73.89

Which residual activity reading was recorded for the compound COc1cc(OC)c2ccc(=O)oc2c1 ?
81.95

Which residual activity reading was recorded for the compound COc1cc(O)c(C(=O)/C=C/c2ccccc2)c(OC)c1 ?
141.4

Which residual activity reading was recorded for the compound ClC1=C(Cl)C2(Cl)C3C(Cl)C(Cl)CC3C1(Cl)C2(Cl)Cl (stereo not drawn) ?
98.3

----------
Field: residual activity. Provide a value for each of the molecules that follow.
biological target: UniProt:Q9Y6L6; details: chinese hamster, cho, 10 µM
Supply the numeric figure in %, leaving out any unit text.

Which residual activity reading was recorded for the molecule OC[C@H]1O[C@@H](Oc2ccc(O)cc2)[C@H](O)[C@@H](O)[C@@H]1O ?
103.7

Which residual activity reading was recorded for the molecule CN(C)[C@@H]1C(O)=C(C(N)=O)C(=O)[C@@]2(O)C(O)=C3C(=O)c4c(O)cccc4[C@@](C)(O)[C@H]3[C@H](O)[C@@H]12 ?
61.86

Which residual activity reading was recorded for the molecule CC(C[N+](C)(C)C)OC(N)=O.[Cl-] (stereo not drawn) [BETHANECHOL CHLORIDE] ?
111.1

Which residual activity reading was recorded for the molecule CC1=CC(=O)CC(C)(C)C1(O)/C=C/C(C)=C\C(=O)O (racemic) [ABSCISIC ACID] ?
70.85

Which residual activity reading was recorded for the molecule C[C@H]1CC[C@@]2(OC1)O[C@H]1C[C@H]3[C@@H]4CC[C@@H]5C[C@@H](O)CC[C@]5(C)[C@H]4CC[C@]3(C)[C@H]1[C@@H]2C ?
50.78

Which residual activity reading was recorded for the molecule CC(=O)Oc1ccc(-c2cc(=O)c3c(OC(C)=O)cc(OC(C)=O)cc3o2)cc1 [APIGENIN TRIACETATE] ?
92.99

Which residual activity reading was recorded for the molecule CCCCOC(=O)c1ccccc1C(=O)OCCCC [DIBUTYL PHTHALATE] ?
119.5

Which residual activity reading was recorded for the molecule CC(C)N(C(=O)CCl)c1ccccc1 ?
110.8

----------
target: Solute carrier organic anion transporter family member 1B3 (Homo sapiens); details: chinese hamster, cho, 10 µM
Sequence (Q9NPD5 whole entry): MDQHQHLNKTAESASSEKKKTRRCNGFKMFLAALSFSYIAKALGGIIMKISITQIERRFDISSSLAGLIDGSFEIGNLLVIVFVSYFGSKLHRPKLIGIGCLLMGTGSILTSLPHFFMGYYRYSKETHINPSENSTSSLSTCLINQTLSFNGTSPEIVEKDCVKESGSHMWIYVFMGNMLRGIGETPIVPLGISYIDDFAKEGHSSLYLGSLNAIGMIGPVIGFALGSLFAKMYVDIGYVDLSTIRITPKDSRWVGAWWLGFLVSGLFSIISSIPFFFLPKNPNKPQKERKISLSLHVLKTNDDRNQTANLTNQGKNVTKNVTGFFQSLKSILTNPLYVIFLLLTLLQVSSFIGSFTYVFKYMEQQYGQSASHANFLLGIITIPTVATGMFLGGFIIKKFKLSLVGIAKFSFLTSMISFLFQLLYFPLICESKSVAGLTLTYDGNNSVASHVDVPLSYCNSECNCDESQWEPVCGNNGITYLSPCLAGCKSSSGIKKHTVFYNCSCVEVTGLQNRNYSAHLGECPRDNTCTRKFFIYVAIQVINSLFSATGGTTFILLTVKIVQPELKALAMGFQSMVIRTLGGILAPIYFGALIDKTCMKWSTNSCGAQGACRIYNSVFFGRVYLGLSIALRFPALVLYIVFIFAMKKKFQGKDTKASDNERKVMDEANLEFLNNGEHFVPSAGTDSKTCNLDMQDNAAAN
Recorded endpoint: residual activity (%)
Supply the numeric figure in %, leaving out any unit text.

Which residual activity reading was recorded for the compound COc1cccc(-c2cc(=O)c3ccc(OC)cc3o2)c1 ?
101.6

Which residual activity reading was recorded for the compound CC(=O)O[C@@H]1C=C[C@]2(C)C(C[C@@H](OC(C)=O)[C@]3(C)C4=CC(=O)O[C@H](c5ccoc5)[C@@]4(C)CCC23)C1(C)C (some centres undefined) [DEOXYGEDUNOL ACETATE] ?
49.18

Which residual activity reading was recorded for the compound N[C@H](CO)Cc1ccccc1 ?
101.5

Which residual activity reading was recorded for the compound N[C@H](Cc1ccccc1)C(=O)O ?
84.71

----------
molecular target: Solute carrier organic anion transporter family member 1B1 (Homo sapiens, UniProt Q9Y6L6); conditions: chinese hamster, cho, 10 µM
Assign class by residual activity: not lower than 80% means MET; lower than 80% means NOT MET.

Could you please find out whether COc1ccc2c(c1O)-c1c(OC)c(OC)cc3c1[C@H](C2)N(C)CC3 has residual activity that meets 80% or exceeds it?
MET

Could you please find out whether O=C1CCCN1CC#CCN1CCCC1 has residual activity that meets 80% or exceeds it?
MET

Could you please find out whether Cc1nnc(SCC2=C(C(=O)[O-])N3C(=O)[C@@H](NC(=O)Cn4cnnn4)[C@H]3SC2)s1.[Na+] [CEFAZOLIN SODIUM] has residual activity that meets 80% or exceeds it?
MET

Could you please find out whether Nc1ccc(S(=O)(=O)Nc2ccnn2-c2ccccc2)cc1 has residual activity that meets 80% or exceeds it?
MET

Could you please find out whether CC(=O)O[C@H]1C[C@@H](OC(C)=O)C(C)(C)[C@@H]2CC(=O)[C@]3(C)[C@H](CC[C@@]4(C)[C@H](c5ccoc5)OC(=O)[C@H]5O[C@]543)[C@@]12C has residual activity that meets 80% or exceeds it?
NOT MET

Could you please find out whether CC(C)=CCc1c2c(c3occ(-c4ccc(O)c(O)c4)c(=O)c3c1O)C=CC(C)(C)O2 has residual activity that meets 80% or exceeds it?
MET

Could you please find out whether CNC[C@H](O)c1cccc(O)c1.Cl [PHENYLEPHRINE HYDROCHLORIDE] has residual activity that meets 80% or exceeds it?
MET

Could you please find out whether Nc1cc(N2CCCCC2)nc(N)[n+]1[O-] has residual activity that meets 80% or exceeds it?
MET

Could you please find out whether Nc1ccc(C(=O)[O-])c(O)c1.O.O.[Na+] [AMINOSALICYLATE SODIUM] has residual activity that meets 80% or exceeds it?
NOT MET

Could you please find out whether CC(=O)c1c(O)cc(O)cc1O [2,4,6-TRIHYDROXYACETOPHENONE] has residual activity that meets 80% or exceeds it?
NOT MET

Could you please find out whether CC[C@@]1(O)C[C@H](O[C@H]2C[C@H](N(C)C)[C@H](O)[C@H](C)O2)c2c(cc3c(c2O)C(=O)c2c(O)cccc2C3=O)[C@H]1C(=O)OC.Cl [AKLAVINE HYDROCHLORIDE] has residual activity that meets 80% or exceeds it?
NOT MET

Could you please find out whether Br.CC(N)Cc1ccc(O)cc1 (stereo unspecified) [HYDROXYAMPHETAMINE HYDROBROMIDE] has residual activity that meets 80% or exceeds it?
MET

Could you please find out whether COc1ccc(C(Cl)=C(c2ccc(OC)cc2)c2ccc(OC)cc2)cc1 has residual activity that meets 80% or exceeds it?
MET

Could you please find out whether CN(C)C(=O)C(CCN1CCC(O)(c2ccc(Cl)cc2)CC1)(c1ccccc1)c1ccccc1.Cl [LOPERAMIDE HYDROCHLORIDE] has residual activity that meets 80% or exceeds it?
NOT MET

Could you please find out whether CC1(C)C(=O)C=C[C@]2(C)[C@H]3CC[C@@]4(C)[C@H](c5ccoc5)OC(=O)[C@H]5O[C@]54[C@]3(C)[C@H](O)C[C@@H]12 has residual activity that meets 80% or exceeds it?
NOT MET

Could you please find out whether CN1CCC(=C2c3ccccc3CC(=O)c3sccc32)CC1.O=C(O)/C=C/C(=O)O [KETOTIFEN FUMARATE] has residual activity that meets 80% or exceeds it?
MET
